Here, each record is paired with measured pKi data.
- experimental_system: Adenosylhomocysteinase (Mus musculus, UniProt P50247)
- Sequence (P50247 whole entry): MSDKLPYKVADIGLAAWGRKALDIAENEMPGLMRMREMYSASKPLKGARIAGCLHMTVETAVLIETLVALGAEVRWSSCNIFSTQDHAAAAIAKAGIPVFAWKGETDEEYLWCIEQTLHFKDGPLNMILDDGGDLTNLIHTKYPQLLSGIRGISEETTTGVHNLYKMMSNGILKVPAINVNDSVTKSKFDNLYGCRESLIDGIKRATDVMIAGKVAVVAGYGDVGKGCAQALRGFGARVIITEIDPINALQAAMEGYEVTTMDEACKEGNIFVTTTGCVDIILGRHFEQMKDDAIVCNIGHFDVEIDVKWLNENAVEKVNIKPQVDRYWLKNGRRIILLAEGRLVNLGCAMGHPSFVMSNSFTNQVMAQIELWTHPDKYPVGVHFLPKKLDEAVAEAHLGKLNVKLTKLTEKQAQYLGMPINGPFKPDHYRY
- test_details: Activity determined in mouse liver S-adenosyl-L-homocysteine hydrolase and expressed as KI values.
pKi: −log10 of the molar value.
endpoint: pKi

{"columns": ["compound", "quantitative_readout"],
 "data": [
  ["Nc1ncnc2c1ncn2C1O[C@H](C(F)F)[C@@H](O)[C@H]1O (some centres undefined)", 5.00],
  ["Nc1ncnc2c1ncn2[C@@H]1O/C(=C/F)[C@@H](O)[C@H]1O", 5.98],
  ["Nc1ncnc2c1ncn2[C@@H]1O[C@H](CO)[C@@H](O)[C@@H]1O [VIDARABINE]", 4.52],
  ["Nc1ncnc2c1ncn2[C@@H]1O/C(=C\\F)[C@@H](O)[C@H]1O", 6.26]
]}

====

- experimental_system: Adenosylhomocysteinase (Rattus norvegicus)
- test_details: Activity determined in rat liver S-adenosyl-L-homocysteine hydrolase and expressed as Kinactivator values.
- run_conditions: read-out: Ki
pKi: −log10 of the molar value.

{"columns": ["compound", "pKi"],
 "data": [
  ["Nc1ncnc2c1ncn2C1O[C@H](C(F)F)[C@@H](O)[C@H]1O (stereo partly specified)", 5.01]
]}

====

- System: Moloney murine leukemia virus
- test_details: Antiretroviral activity in the XC-plaque assay using Moloney leukemia virus (MoLV) as a model for human immunodeficiency virus (HIV).
- Assay type: functional, organism-based
Listing of recorded log10 IC50 by entry.
endpoint: log10 IC50 (log10 of the value in µg/mL)

{"columns": ["compound", "log10 IC50"],
 "data": [
  ["Nc1ncnc2c1ncn2[C@@H]1O/C(=C(\\F)Cl)[C@@H](O)[C@H]1O", 0.11],
  ["Nc1ncnc2c1ncn2[C@@H]1O/C(=C\\F)[C@@H](O)[C@H]1O", -1.30],
  ["Nc1ncnc2c1ncn2C1O[C@H](C(F)F)[C@@H](O)[C@H]1O (stereo not given in full)", -0.10],
  ["Nc1ncnc2c1ncn2[C@H]1C[C@H](O)/C(=C/F)O1", 1.00],
  ["Nc1ncnc2c1ncn2[C@@H]1O[C@H](CO)[C@@H](O)[C@@H]1O", 0.00]
]}

====

- experimental_system: Adenosylhomocysteinase (Rattus norvegicus, UniProt P10760)
- Sequence (P10760 whole entry): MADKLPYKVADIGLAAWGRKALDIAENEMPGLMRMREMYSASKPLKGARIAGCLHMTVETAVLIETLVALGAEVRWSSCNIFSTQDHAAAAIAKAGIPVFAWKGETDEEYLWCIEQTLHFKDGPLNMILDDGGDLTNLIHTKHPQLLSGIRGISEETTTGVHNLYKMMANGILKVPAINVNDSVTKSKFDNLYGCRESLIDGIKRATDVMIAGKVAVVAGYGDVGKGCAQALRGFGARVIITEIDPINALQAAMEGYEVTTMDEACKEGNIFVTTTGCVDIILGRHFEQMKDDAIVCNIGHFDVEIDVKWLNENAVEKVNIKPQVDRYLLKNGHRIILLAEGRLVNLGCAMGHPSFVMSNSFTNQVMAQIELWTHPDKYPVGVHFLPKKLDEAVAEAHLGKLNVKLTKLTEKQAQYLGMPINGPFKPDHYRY
- test_details: Time-dependent inhibitory activity against rat liver S-adenosyl-L-homocysteine hydrolase
pKi: −log10 of the molar value.

{"columns": ["compound", "pKi"],
 "data": [
  ["Nc1ncnc2c1ncn2C1O[C@H](C(F)F)[C@@H](O)[C@H]1O (stereo partly specified)", 5.01]
]}

====

Recorded IC50 for the following molecules
- Test system: Moloney murine leukemia virus
- test_details: Antiretroviral activity in the XC-plaque assay using Moloney leukemia virus (MoLV) as a model for human immunodeficiency virus (HIV).
- Assay type: functional, organism-based

{"columns": ["smiles_entry", "IC50 (µg/mL)"],
 "data": [
  ["Nc1ncnc2c1ncn2[C@@H]1O/C(=C\\Cl)[C@@H](O)[C@H]1O", 3.3],
  ["Nc1ncnc2c1ncn2[C@@H]1O/C(=C/F)[C@@H](O)[C@@H]1O", 4.4],
  ["Nc1ncnc2c1ncn2[C@@H]1O/C(=C(/F)Cl)[C@@H](O)[C@H]1O", 0.1],
  ["Nc1ncnc2c1ncn2[C@@H]1O/C(=C/F)[C@@H](O)[C@H]1O", 0.25],
  ["Nc1ncnc2c1ncn2[C@@H]1O/C(=C\\F)[C@@H](O)[C@@H]1O", 1.2]
]}

====

- experimental_system: Adenosylhomocysteinase (Rattus norvegicus, UniProt P10760)
- test_details: Activity determined in rat liver S-adenosyl-L-homocysteine hydrolase and expressed as KI values.
pKi: −log10 of the molar value.

{"columns": ["smiles_entry", "pKi"],
 "data": [
  ["Nc1ncnc2c1ncn2[C@@H]1O/C(=C/F)[C@@H](O)[C@H]1O", 5.62],
  ["Nc1ncnc2c1ncn2[C@@H]1O/C(=C\\F)[C@@H](O)[C@H]1O", 5.19]
]}

====

- experimental_system: Adenosylhomocysteinase (Rattus norvegicus, UniProt P10760)
- test_details: Competitive inhibitory activity against rat liver S-Adenosyl-homocysteine hydrolase
pKi: −log10 of the molar value.
endpoint: pKi

{"columns": ["smiles_entry", "endpoint", "quantitative_readout"],
 "data": [
  ["Nc1ncnc2c1ncn2[C@@H]1O/C(=C(/F)Cl)[C@@H](O)[C@H]1O", "pKi", 5.82],
  ["Nc1ncnc2c1ncn2[C@@H]1O/C(=C\\F)[C@@H](O)[C@@H]1O", "pKi", 4.96],
  ["Nc1ncnc2c1ncn2[C@@H]1O/C(=C/F)[C@@H](O)[C@@H]1O", "pKi", 5.49]
]}

====

- experimental_system: Adenosylhomocysteinase (Rattus norvegicus)
- Sequence (P10760 whole entry): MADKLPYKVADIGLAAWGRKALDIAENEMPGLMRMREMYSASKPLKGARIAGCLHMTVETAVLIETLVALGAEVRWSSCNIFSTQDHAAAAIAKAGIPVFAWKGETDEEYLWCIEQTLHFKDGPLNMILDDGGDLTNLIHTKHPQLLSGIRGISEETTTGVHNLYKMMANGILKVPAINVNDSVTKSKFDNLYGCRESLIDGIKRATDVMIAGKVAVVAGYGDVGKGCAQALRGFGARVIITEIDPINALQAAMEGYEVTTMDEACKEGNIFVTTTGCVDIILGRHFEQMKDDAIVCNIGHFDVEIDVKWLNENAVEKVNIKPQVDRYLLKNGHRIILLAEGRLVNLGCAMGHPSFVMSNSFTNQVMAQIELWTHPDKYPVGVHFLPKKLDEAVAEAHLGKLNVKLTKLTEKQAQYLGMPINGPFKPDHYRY
- test_details: Activity determined in rat liver S-adenosyl-L-homocysteine hydrolase and expressed as Kinactivator values; NA= not applicable
endpoint: Ki (µM)

{"columns": ["smiles_entry", "experimental_system", "quantitative_readout"],
 "data": [
  ["Nc1ncnc2c1ncn2[C@@H]1O/C(=C\\Cl)[C@@H](O)[C@H]1O", "Adenosylhomocysteinase (Rattus norvegicus)", 1.6],
  ["Nc1ncnc2c1ncn2[C@@H]1O/C(=C(\\F)Cl)[C@@H](O)[C@H]1O", "Adenosylhomocysteinase (Rattus norvegicus)", 3],
  ["Nc1ncnc2c1ncn2[C@H]1C[C@H](O)/C(=C/F)O1", "Adenosylhomocysteinase (Rattus norvegicus)", 150]
]}
